FYI, the data here is from ChEMBL document CHEMBL4024712.

Items are presented alongside their recorded MFC.
# Tested on: Pichia kudriavzevii
# measurement description: Fungicidal activity against Candida krusei ATCC 6258 after 18 to 24 hrs by Alamar blue assay
# Format: functional
Non-standard residues stand in square brackets, D forms with d. Residues, ends and D or L forms follow the SMILES beside them. His(τ-Bzl) = N[C@@H](Cc1cn(Cc2ccccc2)cn1)C(=O)O; Phe(4-Me) = Cc1ccc(C[C@H](N)C(=O)O)cc1; Bta = N[C@@H](Cc1csc2ccccc12)C(=O)O; Cha = N[C@@H](CC1CCCCC1)C(=O)O; Orn = NCCC[C@H](N)C(=O)O
measured metric: MFC (mg/L)

* CC(C)C[C@H](NC(=O)[C@H](CC1CCCCC1)NC(=O)[C@@H](Cc1c[nH]c2ccccc12)NC(=O)[C@@H](N)CCCN)C(=O)N[C@H](Cc1ccccc1)C(=O)N[C@@H](Cc1cn(Cc2ccccc2)cn1)C(N)=O (H-[Orn][dW][Cha]L[dF][His(τ-Bzl)]-NH2) | 20
* CC[C@H](C)[C@H](NC(=O)[C@H](CC1CCCCC1)NC(=O)[C@H](Cc1c[nH]c2ccccc12)NC(=O)[C@@H](N)CCCN)C(=O)N[C@H](Cc1ccccc1)C(=O)N[C@@H](Cc1cn(Cc2ccccc2)cn1)C(N)=O (H-[Orn]W[Cha]I[dF][His(τ-Bzl)]-NH2) | 10
* Cc1ccc(C[C@H](NC(=O)[C@@H](Cc2ccccc2)NC(=O)[C@@H](Cc2c[nH]c3ccccc23)NC(=O)[C@@H](N)CCCCN)C(=O)N[C@H](Cc2ccccc2)C(=O)N[C@@H](Cc2cn(Cc3ccccc3)cn2)C(N)=O)cc1 (H-K[dW][dF][Phe(4-Me)][dF][His(τ-Bzl)]-NH2) | 20
* CC[C@H](C)[C@H](NC(=O)[C@H](CC1CCCCC1)NC(=O)[C@@H](Cc1c[nH]c2ccccc12)NC(=O)[C@@H](N)CCCN)C(=O)N[C@@H](Cc1csc2ccccc12)C(=O)N[C@@H](Cc1cn(Cc2ccccc2)cn1)C(N)=O (H-[Orn][dW][Cha]I[Bta][His(τ-Bzl)]-NH2) | 20
* CC[C@H](C)[C@H](NC(=O)[C@H](CC1CCCCC1)NC(=O)[C@H](CC1CCCCC1)NC(=O)[C@@H](N)CCCN)C(=O)N[C@H](Cc1ccccc1)C(=O)N[C@@H](Cc1cn(Cc2ccccc2)cn1)C(N)=O (H-[Orn][Cha][Cha]I[dF][His(τ-Bzl)]-NH2) | 20
* NCCC[C@H](N)C(=O)N[C@H](Cc1c[nH]c2ccccc12)C(=O)N[C@@H](CC1CCCCC1)C(=O)N[C@@H](Cc1csc2ccccc12)C(=O)N[C@H](Cc1ccccc1)C(=O)N[C@@H](Cc1cn(Cc2ccccc2)cn1)C(N)=O (H-[Orn][dW][Cha][Bta][dF][His(τ-Bzl)]-NH2) | 10
* Cc1ccc(C[C@H](NC(=O)[C@@H](Cc2ccccc2)NC(=O)[C@@H](Cc2c[nH]c3ccccc23)NC(=O)[C@H](N)CCCNC(=N)N)C(=O)N[C@H](Cc2ccccc2)C(=O)N[C@@H](Cc2cn(Cc3ccccc3)cn2)C(N)=O)cc1 (H-[dR][dW][dF][Phe(4-Me)][dF][His(τ-Bzl)]-NH2) | 20
